assay: Toxicity liver stage against HepG2, at 10uM; format: cell-based; design: test concentration 10 uM, cell line HepG2-A16-CD81EGFP; conditions: human, HepG2-A16-CD81EGFP cells; read-out: INHIBITION
RECORDED METRIC: cytotoxicity at 10 µM (%)
Record the value in %, omitting the unit from your answer.

// solved cases for cytotoxicity at 10 µM follow
COMPOUND: CCNc1nc2c(s1)C(=O)CN(C(=O)NCc1ccccc1)C2
READING: 59.1
--
COMPOUND: Cc1nc(C2CCCN(C(=O)c3cc(-c4ccccc4)[nH]n3)C2)no1 (stereo not drawn)
READING: -7.99
--
COMPOUND: CC(=O)N1CCCN(C(=O)NCc2ccc(Cl)s2)CC1
READING: -4.02
--
COMPOUND: Cc1ncc2c(n1)CN(Cc1nc(-c3ccsc3)oc1C)CC2
READING: 1.97

q: For the compound CN(C)C(=O)N1CCN(C(=O)c2cccc(Cl)c2)CC2(CNC(=O)C2)C1 (stereo not drawn) , give its reported cytotoxicity at 10 µM.
a: 7.61

q: Please give the documented cytotoxicity at 10 µM of CN(C)CCN1C(=O)C2(CCN(CC3CC3)CC2)c2ccccc21
a: -120

q: Report cytotoxicity at 10 µM for CC(=O)N1CCC(c2ncc(C(=O)Nc3ccccc3)c(C)n2)CC1
a: 5.91

q: Please supply the value of reported cytotoxicity at 10 µM for the item CN1CCOC(CNCCOc2ccc(C#N)cc2)C1 (stereo not drawn)
a: 9.34

q: Specify measured cytotoxicity at 10 µM for COc1cc(COCC2CCN(Cc3ccccn3)CC2)cc(OC)c1 .
a: -3.36

q: Tell me its cytotoxicity at 10 µM given CCNC(c1ccc(Br)cc1)c1cccnc1 (stereo not drawn) as the entry.
a: -0.1

q: Respond only with cytotoxicity at 10 µM recorded for CN(Cc1ccccc1F)C(=O)c1cc(Cl)c[nH]1
a: -5.45

q: Tell me cytotoxicity at 10 µM reported for Cc1ccc(CNC(=O)CCSCc2csc(C)n2)cn1
a: -10

q: Indicate the recorded cytotoxicity at 10 µM value for this compound: c1nc(C2CCCCO2)ncc1CN1CCOCC1 (stereo not drawn)
a: -8.45

---

assay: Toxicity liver stage against HepG2, at 10uM; format: cell-based; design: test concentration 10 uM, cell line HepG2-A16-CD81EGFP; details: human, HepG2-A16-CD81EGFP cells; read-out: INHIBITION
RECORDED METRIC: cytotoxicity at 10 µM (%)
Kindly provide the numeric value in % only, without the unit symbol.

MOLECULE: CCS(=O)(=O)N1CCC2(CC1)CC(COC)N(c1ncccn1)C2 (centres undefined)
cytotoxicity at 10 µM (%): 5.57
//
MOLECULE: O=C(CCc1nccs1)N1CCN(c2ccc(Cl)cn2)CC1
cytotoxicity at 10 µM (%): 0.665
//
MOLECULE: CC1CCC(N2CCC(NS(=O)(=O)CCCF)CC2)CC1 (centres undefined)
cytotoxicity at 10 µM (%): 1.2
//
MOLECULE: OCC1(O)CCCN(Cc2noc(-c3ccccc3)n2)CC1 (centres undefined)
cytotoxicity at 10 µM (%): -2.72
//
MOLECULE: CN(Cc1ccco1)C[C@H]1OC[C@@H]2CCN(Cc3nccs3)C[C@@H]21
cytotoxicity at 10 µM (%): -5.9
//
MOLECULE: CCc1n[nH]c(C2CN(C(=O)c3ccc4c(c3)COC4)CCO2)n1 (centres undefined)
cytotoxicity at 10 µM (%): -1.63
//
MOLECULE: CN(C)C(=O)N1Cc2ncn(C)c2C(COCC2CCOCC2)C1 (centres undefined)
cytotoxicity at 10 µM (%): -69.9
//
MOLECULE: CCOCC(=O)N1CCC2(CC1)CN(Cc1cccnc1)C(=O)CO2
cytotoxicity at 10 µM (%): -0.125

q: Answer with reported cytotoxicity at 10 µM of CC(=O)N1CCCC(C(=O)N2CCN(Cc3cc(C)on3)CC2)C1 (centres undefined)
a: -52.2

q: Respond only with cytotoxicity at 10 µM recorded for CCc1cc(O)n2nc(C3CCN(C(=O)c4cccnc4)CC3)cc2n1
a: 7.09

q: Give me measured cytotoxicity at 10 µM, please, for this molecule: c1cn(CCn2cnnc2)c(-c2cc3n(n2)CCCNC3)n1
a: -0.309

q: // Input: CC(C(=O)NC(C)(C)C)S(=O)(=O)Cc1noc(C(C)(C)C)n1 (centres undefined) . Output its cytotoxicity at 10 µM only.
a: -10.8

q: Specify measured cytotoxicity at 10 µM for Cc1cccc(C(=O)Nc2cccc3c2C(=O)NC3)n1 .
a: 1.14

q: Fill in cytotoxicity at 10 µM for record CC(C)C1CN(C(=O)c2cn3cc(Cl)cnc3n2)CCCN1CC1CC1 (centres undefined)
a: 3.46

q: Give a short answer stating reported cytotoxicity at 10 µM for Cc1nnc2n1CCN(CCCS(=O)(=O)c1ccccc1)C2 .
a: -11.2

q: Give recorded cytotoxicity at 10 µM. CN(C)Cc1cncc2c1CCN(C1CCOCC1)C2
a: 11.1

q: Please give measured cytotoxicity at 10 µM of the following entry: Cn1ccc(CN2CCN(CC3CC3)CC2)cc1=O
a: -16.6

q: Tell me measured cytotoxicity at 10 µM for CN(Cc1cccc(OC(F)(F)F)c1)C(=O)c1ccncc1F please.
a: 3.76

q: Please give measured cytotoxicity at 10 µM of the following entry: Cc1cc(CNC(=O)c2cnoc2C)c(C)o1
a: -6.32

q: Read the entry Cc1nnc(CSCc2ccc(OCC(F)(F)F)nc2)o1 and write its reported cytotoxicity at 10 µM.
a: 2.49

q: For the molecule Cc1nc(C)n(CC2CCCCN2CC(=O)N(C)Cc2ccco2)n1 (centres undefined) , give its measured cytotoxicity at 10 µM value.
a: 2.65

q: Please give measured cytotoxicity at 10 µM of the following entry: Cn1nccc1-c1ncc2c(c1C(=O)O)CCN(Cc1ccncc1)C2
a: 6.1

q: Please report cytotoxicity at 10 µM for the following molecule: CCc1nc(CN2CCCN(C(=O)c3ccccc3)CC2)cs1
a: 7.41

q: Read the entry CC(C1CCN(Cc2ccc(N(C)C)nc2)CC1)N(C)C (centres undefined) and write its reported cytotoxicity at 10 µM.
a: -1.75
